assay: folding enthalpy; higher = less favourable; fluorescence melt of hairpins on a sequencing array, two-state fit; conditions: sodium 0.088 M
attribute.measured: folding enthalpy (kcal/mol)
One number for each entry, in kcal/mol.

chain	folding enthalpy [kcal/mol]
GAGATAGGAAACTGTCTC ((((.((....)).))))	-29.5

Would you mind giving folding enthalpy for every sequence in the list below?
1. GGCGTAGGAAACTACACC ((.((((....)))).))
2. GTAACTCGAAAGAGCTAC (((.(((....))).)))
3. GATCTTTTCAAAGATC ((((((....))))))
4. GATCTACTCTAGATC ((((((...))))))
5. GGTCGAGGAAACTCGGTC (..((((....))))..)
6. GCTTGTCGAAAGACAGC (((.(((....))))))
7. GTCTAAGCGAAAGCTGAC (((..(((....))))))
8. GGAGACCGAAAGGTTCC (((.(((....))))))

1. -29.1
2. -29.2
3. -43.6
4. -31
5. -16.2
6. -19.9
7. -17.2
8. -22.5
